# assayed system: Gal6S(b1-4)Glc6S
# measurement protocol: glycan array binding signal (z-score within array); higher = stronger binding
# measurement setup: glycan notation: IUPAC condensed, linker removed
Many of the other results were omitted from the sample, so the strongest signals are more common in it than they were.
reported metric: glycan array binding signal (z-score)
Hey, just send me the number, nothing else.

The cases that follow already have their glycan array binding signal (z-score) on record.
binder: NcCVNHO (Neurospora crassa), Q7S6U4 (protein) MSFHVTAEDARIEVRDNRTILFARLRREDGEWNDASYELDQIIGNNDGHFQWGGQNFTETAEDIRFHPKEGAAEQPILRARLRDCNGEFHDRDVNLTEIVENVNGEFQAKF
reported metric: glycan array binding signal (z-score)
value: -0.209
--
binder: rCnSL-A (Clitocybe nebularis) (protein) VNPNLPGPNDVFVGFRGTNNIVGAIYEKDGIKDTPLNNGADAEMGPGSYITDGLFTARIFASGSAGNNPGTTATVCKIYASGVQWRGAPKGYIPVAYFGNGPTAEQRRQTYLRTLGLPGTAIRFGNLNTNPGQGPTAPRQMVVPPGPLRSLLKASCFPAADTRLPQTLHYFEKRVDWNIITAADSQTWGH
reported metric: glycan array binding signal (z-score)
value: -0.241
--
binder: UEA-I (Ulex europaeus), P22972 (protein) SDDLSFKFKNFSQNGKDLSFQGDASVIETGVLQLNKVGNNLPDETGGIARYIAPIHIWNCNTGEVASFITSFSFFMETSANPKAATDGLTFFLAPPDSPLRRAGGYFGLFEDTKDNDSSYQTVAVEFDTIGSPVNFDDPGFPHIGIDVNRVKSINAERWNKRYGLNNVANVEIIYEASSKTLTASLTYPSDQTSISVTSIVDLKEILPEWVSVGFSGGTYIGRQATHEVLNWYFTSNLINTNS
reported metric: glycan array binding signal (z-score)
value: -0.098
--
binder: Calsepa (Calystegia sepium), P93114 (protein) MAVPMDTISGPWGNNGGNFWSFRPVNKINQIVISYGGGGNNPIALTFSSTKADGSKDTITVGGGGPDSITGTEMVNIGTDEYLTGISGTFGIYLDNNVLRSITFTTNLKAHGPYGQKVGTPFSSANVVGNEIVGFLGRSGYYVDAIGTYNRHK
reported metric: glycan array binding signal (z-score)
value: -0.237
--
binder: CpGal16 (Clavelina picta) (protein) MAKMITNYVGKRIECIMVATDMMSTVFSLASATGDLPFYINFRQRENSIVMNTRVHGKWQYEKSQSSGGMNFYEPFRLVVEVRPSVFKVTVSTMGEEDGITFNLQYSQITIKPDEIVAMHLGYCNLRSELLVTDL
reported metric: glycan array binding signal (z-score)
value: -0.12
--
binder: Alpha-agglutinin (Saccharomyces cerevisiae) (protein) MFTFLKIILWLFSLALASAININDITFSNLEITPLTANKQPDQGWTATFDFSIADASSIREGDEFTLSMPHVYRIKLLNSSQTATISLADGTEAFKCYVSQQAAYLYENTTFTCTAQNDLSSYNTIDGSITFSLNFSDGGSSYEYELENAKFFKSGPMLVKLGNQMSDVVNFDPAAFTENVFHSGRSTGYGSFESYHLGMYCPNGYFLGGTEKIDYDSSNNNVDLDCSSVQVYSSNDFNDWWFPQSYNDTNADVTCFGSNLWITLDEKLYDGEMLWVNALQSLPANVNTIDHALEFQYTCLDTIANTTYATQFSTTREFIVYQGR
reported metric: glycan array binding signal (z-score)
value: 0.122
--
binder: GNL (Galanthus nivalis) (protein) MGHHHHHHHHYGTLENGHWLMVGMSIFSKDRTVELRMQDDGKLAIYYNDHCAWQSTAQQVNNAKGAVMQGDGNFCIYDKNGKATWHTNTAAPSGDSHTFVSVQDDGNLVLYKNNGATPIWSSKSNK
reported metric: glycan array binding signal (z-score)
value: -0.207
--
binder: MD-2 (Homo sapiens) (protein) MLPFLFFSTLFSSIFTEAQKQYWVCNSSDASISYTYCDKMQYPISINVNPCIELKGSKGLLHIFYIPRRDLKQLYFNLYITVNTMNLPKRKEVICRGSDDDYSFCRALKGETVNTTISFSFKGIKFSKGKYKCVVEAISGSPEEMLFCLEFVILHQPNSN
reported metric: glycan array binding signal (z-score)
value: 6.38
--
binder: IRp60B (Homo sapiens), Q9UGN4-3 (protein) MWLPWALLLLWVPAGDHSELSQNPKQAATQSELHYANLELLMWPLQEKPAPPREVEVEYSTVASPREELHYASVVFDSNTNRIAAQRPREEEPDSDYSVIRKT
reported metric: glycan array binding signal (z-score)
value: -0.421

Moving on to another binder below.
input: Using known records, supply glycan array binding signal (z-score) for Pp2-A2 (Arabidopsis thaliana), Q07098 (protein) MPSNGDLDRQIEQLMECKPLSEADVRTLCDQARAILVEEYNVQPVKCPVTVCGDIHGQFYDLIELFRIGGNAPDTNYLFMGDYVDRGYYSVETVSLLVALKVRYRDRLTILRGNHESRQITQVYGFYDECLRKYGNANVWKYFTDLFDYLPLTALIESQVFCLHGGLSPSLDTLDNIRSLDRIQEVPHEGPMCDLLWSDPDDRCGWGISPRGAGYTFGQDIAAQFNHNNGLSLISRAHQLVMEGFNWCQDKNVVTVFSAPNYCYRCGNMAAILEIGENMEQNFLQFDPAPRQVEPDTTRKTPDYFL
output: 4.11
